Target: Protein smoothened (Mus musculus, UniProt P56726)
Sequence (P56726 whole entry): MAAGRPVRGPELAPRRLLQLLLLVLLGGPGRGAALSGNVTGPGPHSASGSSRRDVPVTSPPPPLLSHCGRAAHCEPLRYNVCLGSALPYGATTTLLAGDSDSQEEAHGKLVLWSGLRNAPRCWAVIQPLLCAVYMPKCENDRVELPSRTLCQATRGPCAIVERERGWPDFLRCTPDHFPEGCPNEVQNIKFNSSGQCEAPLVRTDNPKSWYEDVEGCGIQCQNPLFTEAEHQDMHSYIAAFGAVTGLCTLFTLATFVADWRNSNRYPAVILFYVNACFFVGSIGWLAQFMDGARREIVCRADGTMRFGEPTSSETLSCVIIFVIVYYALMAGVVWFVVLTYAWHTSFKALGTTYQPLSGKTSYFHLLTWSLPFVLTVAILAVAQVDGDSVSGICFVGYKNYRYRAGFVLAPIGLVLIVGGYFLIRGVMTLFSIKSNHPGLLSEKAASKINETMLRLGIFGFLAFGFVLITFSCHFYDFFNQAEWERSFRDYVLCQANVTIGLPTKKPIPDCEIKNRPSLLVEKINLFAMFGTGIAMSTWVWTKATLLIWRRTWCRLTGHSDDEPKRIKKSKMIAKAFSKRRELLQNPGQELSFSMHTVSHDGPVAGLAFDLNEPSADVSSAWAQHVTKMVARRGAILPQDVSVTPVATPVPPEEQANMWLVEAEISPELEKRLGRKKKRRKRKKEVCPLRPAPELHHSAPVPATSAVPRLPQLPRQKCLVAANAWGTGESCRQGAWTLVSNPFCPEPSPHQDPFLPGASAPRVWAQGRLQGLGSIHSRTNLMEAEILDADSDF
Assay: Inhibition of Smo in mouse C3H10T1/2 cells assessed as inhibition of human Shh-induced Gli1 transcriptional activity after 48 hrs by RT-PCR analysis
Assay type: cell-based, C3H 10T1/2
REPORTED_METRIC: IC50 (µM)
Answers are plain numbers, in µM.

> print(dat)
                                   molecule                          target.or.system  units.symbol  value.measured
1  O=C(C[C@@H]1C/C=C/CCC(=O)N[C@H](c2ccc(Cl)cn2)COC1=O)NCc1ccc(Cl)cc1  Protein smoothened (Mus musculus, UniProt P56726)            µM             4.3

With those in mind, consider the next compound.
For "O=C(C[C@@H]1C/C=C/CCC(=O)N[C@H](c2ccc(Cl)cc2)COC1=O)NCc1ccc(Cl)cc1" the compound record lists IC50 as 0.4
